Test system: DU145
test-summary: Euclidean distance of Cell Painting phenotypic profile (signed KS, 77 features) to DMSO centroid (dimensionless distance); 5 or 10 uM (library dependent); higher = stronger phenotypic change vs DMSO (phenoactivity)
recorded-conditions: 48 h
Counter-ions that a name gives are not always drawn.
measure-name: Euclidean distance
Answer with a bare number; do not write a unit.

Take a look at these entries with their results.
[[record]]
compound = "O=C(O)/C=C/c1ccc(Cn2ccnc2)cc1 [Ozagrel HCl]"
study_target = "DU145"
measured_result = 1.12

[[record]]
compound = "C[N+]1(C)[C@@H]2CC[C@H]1C[C@@H](OC(=O)C(O)c1ccccc1)C2 (stereo partly drawn) [Homatropine Methylbromide]"
study_target = "DU145"
measured_result = 1.26

[[record]]
compound = "CC(C)Cc1ccc(C(C)C(=O)O)cc1 (stereo not drawn) [Ibuprofen]"
study_target = "DU145"
measured_result = 0.996


Can you share its Euclidean distance? I mean this compound: "CN1C(=O)C(C)(C)Oc2c(-c3cn(C)c(=O)c4[nH]ccc34)cc(S(C)(=O)=O)cc21"
2.87

Param item: O=c1ccc2cc3ccoc3cc2o1 [Psoralen]
0.873

And what about the compound COc1ccnc(C[S+]([O-])c2nc3cc(-n4cccc4)ccc3[nH]2)c1C (stereo not drawn) [Ilaprazole] ?
1.17

Then this compound: COc1ccc(CN2CCN(C(c3ccc(F)cc3)c3ccc(F)cc3)CC2)c(OC)c1OC [Lomerizine 2HCl]
1.02

One more compound: CC(C)(C)NC(=O)[C@@H]1CN(Cc2cccnc2)CCN1C[C@@H](O)C[C@@H](Cc1ccccc1)C(=O)N[C@H]1c2ccccc2C[C@H]1O [Indinavir Sulfate]
0.801
